// reverse-splicing fitness lookup, one value per entry
B1: Azoarcus group I ribozyme (parent)
chain: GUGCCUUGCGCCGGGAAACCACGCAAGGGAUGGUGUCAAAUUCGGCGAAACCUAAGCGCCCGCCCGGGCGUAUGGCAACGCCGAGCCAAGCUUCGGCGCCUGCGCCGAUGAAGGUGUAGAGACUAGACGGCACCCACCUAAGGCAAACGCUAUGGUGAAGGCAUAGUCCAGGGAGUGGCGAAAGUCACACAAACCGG

variants of: B1; experiment: reverse-splicing fitness (ratio to wild type); higher = more active; in vitro selection; Mg2+ level not given
Reply with just the number.

{"mutation_annotation": "C82A A111G A145G C150A C169G U176C", "reverse-splicing fitness": 0.0256}

[ask] Tell me its reverse-splicing fitness given A111C A120U A145U C169U U176C as the entry.
[reply] 0.0216

[ask] Tell me its reverse-splicing fitness given A111G A120G A145G C150G C169G U176A as the entry.
[reply] 0.00945

[ask] Tell me its reverse-splicing fitness given A120G A145G C150A C169U U176A as the entry.
[reply] 0.0726

[ask] Tell me its reverse-splicing fitness given A111G A120C C150G C169U as the entry.
[reply] 0.0262

[ask] Tell me its reverse-splicing fitness given C82A A120G A145C C150G U176C as the entry.
[reply] 0.00686
